Method Description: soluble fraction after stress (log2 fold change); higher = more stays soluble; pooled small domains, quantitative proteomics
Condition: stress: 50 degC
Binning rule for recorded soluble fraction (log2): group 1 = under -0.5, group 2 = from -0.5 up to 0.05, group 3 = 0.05 and over

As a guide, the following entries are already answered.
>>> print(df.to_string())
                         construct_sequence  classification
0  HMDTNKMLIVNSISNGMKRLQELQDPQLAEIQKTFSGLDEQKATSAQLAQINNIINNRIAEIEG         group 3
1  HMALYSEQVSEIEKALMSLPPKYQLVMLLLYAEDLKYEQIAEILDEPIGTVKTKIHRARKILKERF         group 2
2  HMSNDRSYLARLQDYYAEHRALPSYASIGALLGLRSKSSVAALVARLKLAGFVESTPDRRLAPTRRFF         group 1
3  HMAKNSVLTIELWNSTAFKWRKDTEPYSESMSVDFNRSVRLTDGISIMFSKFGFVPGIQYLIPLQT         group 2
4  HMVDYIGRRGVMLSTVSEEKMGNAEVVIDGNSYNIYVKSLDGSTIAYHQEILIINKSKDNNYFLVQIY         group 1
5  HMKEIGGGPASKFIYYLIKTKHPIEQGDLIGITHLPRRTVQSAIEDLKNQGFIIERNSLDDSRRKVYYPVK         group 2
6  HMRSSNEAVSQRRDKILDYISATGRTSTEIVAKEFGVSVMTARRDLLYLMEKRLISKSSSGLFKVDNN         group 1
7  HMDENILKTRIEDLDLSVRTIKALTGASIRTVSGLARKKESDLLEISGLGDKGIQEIKRALGSLGITL         group 3

Which bin, given its soluble fraction (log2), does HMGPTGGLTPHIAIADKRASEAIEFYKQAFGAVEQVRMPAEDGVRLMHAHLLVNGSSLMMHDDFPEYSGQ occupy? group 3

Continue with HMDFSENEPVTVRVLSILKNNTIRIAVKGAVLQAQTALSQDIREGAFLLMRVHITDNTVVLTPY group 3

Continue with HMREIEVNYAAGDSVRVIDGPLAGFIGVVSSVEPDKNKVNVTVSMFGRETPVELELDQVETLD group 3

Continue with HMDPEIADAVNTIKKYLESHYSEVITRKKIEELVHLNQDHINREFKKQTGYTLMEYVQHYRILMAKKMLRV group 2

Continue with HMLPDGEAFVKVNTSLNIRTGPWGQIVGWFHNNDKVKIIGRDGDWYKISHNGQTRYIHSRYVSSSR group 1

Continue with HMKHVENLSDEKTIQAIQENPYMQYLLGLSKFTEKPVFVPELFVLIRKRLDQDFFNMLTLILAEADG group 3

Continue with HMYRIGELAKLADVTPDTIRYYEKQQMMDHDVRTEGGFRLYSDNDLQRLKFIRYARQLGFTLEAIRELLSI group 1

Continue with HMPSLNDRPDDVLYLFSYFLQSFSHRQVSLPKILKKALIQHDWWGNIRELHSVALRYYIFGDTLNGAYDSL group 1

Continue with HMSVPQENKDLLGRSIEIFYAGKTVEAKVTDTGALAPLGRALDLSPATWRAFGASSISDWGVRGVFYRFVA group 2

Continue with HMFQLSNEAKQQVLGELKRYESKQSAVLPALYIGQKDNKGHITPEVIRELSKVMDIPESQINEVFTFYTM group 2

Continue with HMEPEVSNTYEKVLGMHHFSSTRSHQLHDLVRQANALELSLGEIESIAQSAKDGAQVISDIKHWMEPNRQ group 3

Continue with HMGIAFDYDAGRFDQVPPNLVEKWQQAYPAVDVLSELRRMEAWASANPVNRKSNWQRFIVNWLTRAQDRAG group 2

Continue with HMQKTQVVEVAGKSYQLTKMDARTGSYVAFKVAGVLAPSGGKTAEMAAALMGMPRKDFDELQSLLLRTV group 3

Continue with HMDAMLGEALRLIRVYHDLKQKQAAERLEVSTSYLSEIERGLKTPTLDIIQRYATVFDMPVSSIMFFSENL group 1

Continue with HMDVLIQEIGKRLRIQRLAMGLTQEELAKRAGISLSTLKLMEQQGKGSLQRLAKVAVVLDLDGDLRGLF group 1

Continue with HMITANNYFNEVERIGVETLPETLRKGHDLVVRSTNSGTNWSNYQNNESIRKVIDLYLQKLNEYVSTST group 3

Continue with HMDYNLTKNQKIVFNLLQNSGEPLKAYTILESLKREGLKSPLQVYRALDKLVELGIIHKIESQNSFI group 2

Continue with HMSNVKVYPNPTSGKLTIDAENYKGVEVYDTSGRLIVKSELRTIDLEEQSKGLYLLKVNANGTTQEFKVFK group 2

Continue with HMREITVEELYELEGIRIVGTIPGISAWVAESGRQMVFLVGQKVKGHDLLEVGESRVVLRKGDSVVNVLL group 2

Continue with HMPGLQSVTPAELKIGMYVILPLAWDEHPFLKNHFLIQSEAQINKIRELGTKGIQIDLSKSHP group 1

Continue with HMRRATLERLANNTAEKAIRYKRSLALEPMNPQERRIIHAALQEVEGVSTHSVGTEPNRKVIVVPDGV group 2

Continue with HMSRLLRTDAHLQYAAERGLPVTASAYTPVFAGAKQYTGRIESFDAQTIRFADGPAVERKAVARLEAE group 3

Continue with HMTDSISLTLNGDPRPFRAGATVADLVRDIGLDPAKVAVERNLEIVPRSTLENVHLADGDVLEIVHFV group 2

Continue with HMQNNWFYEENGQRKGPVSENEMVQFIKSSVISHGTSVWKQGFPDWLKVENTDLRVHLDNSAP group 3

Continue with HMLMSDEENAEFTKLYRQLVFKLHPDLNPNQTKDEENLWHKVQMAYKGGDLEEMRSLAIILDAQ group 2

Data origin: the domain aggregation screens of Martell et al. (2025)
